# credit: paper PMC11605156

Tested System: CYP3A4 (Homo sapiens)
Sequence (P08684 whole entry): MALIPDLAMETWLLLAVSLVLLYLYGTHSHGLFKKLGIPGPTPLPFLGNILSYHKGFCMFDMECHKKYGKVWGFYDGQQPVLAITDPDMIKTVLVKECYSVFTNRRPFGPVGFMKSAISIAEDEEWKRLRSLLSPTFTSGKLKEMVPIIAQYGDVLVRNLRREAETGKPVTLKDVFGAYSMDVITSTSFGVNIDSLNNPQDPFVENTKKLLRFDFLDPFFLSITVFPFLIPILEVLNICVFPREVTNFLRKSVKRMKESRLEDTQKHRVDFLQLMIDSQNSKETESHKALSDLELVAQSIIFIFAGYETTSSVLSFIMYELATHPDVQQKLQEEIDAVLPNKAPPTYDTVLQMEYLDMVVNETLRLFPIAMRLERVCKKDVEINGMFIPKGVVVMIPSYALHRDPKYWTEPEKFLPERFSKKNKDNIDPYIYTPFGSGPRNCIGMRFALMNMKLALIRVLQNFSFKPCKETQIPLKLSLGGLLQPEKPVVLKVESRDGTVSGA
Assay Text: CYP3A4 inhibition, probe/drug metabolism in human liver microsomes
Conditions Used: IC50 against metabolism of simvastatin mediated by CYP3A4, substrate simvastatin 10 μM, 30 min
Metric Name: IC50 (µM)
Supply the numeric figure in µM, leaving out any unit text.

Problem: Return reported IC50; argument: CC(CCC(O)C(C)(O)CO)C1CCC2(C)C3=C(C(=O)CC12C)C1(C)CCC(=O)C(C)(C)C1CC3 (stereo not shown) [Compound 25, ganodrol C]
Solution: 4.5

###

Tested System: CYP2B6 (Homo sapiens, UniProt P20813)
Sequence (P20813 whole entry): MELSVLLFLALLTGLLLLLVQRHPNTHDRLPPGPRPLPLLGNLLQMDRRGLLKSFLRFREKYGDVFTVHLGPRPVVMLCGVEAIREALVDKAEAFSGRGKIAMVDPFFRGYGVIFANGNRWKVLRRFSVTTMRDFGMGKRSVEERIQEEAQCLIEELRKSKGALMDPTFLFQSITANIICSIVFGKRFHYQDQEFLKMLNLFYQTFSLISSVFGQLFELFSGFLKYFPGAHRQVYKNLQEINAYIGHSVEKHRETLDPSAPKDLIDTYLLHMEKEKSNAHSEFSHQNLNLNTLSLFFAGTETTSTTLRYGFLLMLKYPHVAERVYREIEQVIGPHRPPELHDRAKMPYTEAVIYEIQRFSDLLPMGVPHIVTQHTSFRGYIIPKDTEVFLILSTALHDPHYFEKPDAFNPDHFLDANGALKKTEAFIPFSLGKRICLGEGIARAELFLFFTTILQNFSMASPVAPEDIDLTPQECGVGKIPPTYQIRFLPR
Assay Text: CYP2B6 inhibition, probe/drug metabolism in human liver microsomes
Conditions Used: IC50 against metabolism of artemisinin mediated by CYP2B6, substrate artemisinin 10 μM, 30 min
Protocol: The total volume of the in vitro metabolic incubation system is 200 μL. The probe substrate concentration in the system is shown in Supplementary Table S1. […] The reaction sample was preheated in a constant temperature mixer at 37°C. Then NADP^+ was added to the system to initiate the reaction. […] The supernatant was analyzed using liquid chromatography tandem mass spectrometry (LC-MS/MS), and the activity of CYP enzymes was evaluated by the generation of probe metabolites. […]
Metric Name: pIC50
// returns pIC50 (minus log10 of molar concentration), number only

Problem: Data request, read-out pIC50, for CC(CCC(O)C(C)(O)CO)C1CCC2(C)C3=C(C(=O)CC12C)C1(C)CCC(=O)C(C)(C)C1CC3 (stereo not shown) [Compound 25, ganodrol C]
Solution: 4.67
